# subject of test: T1, cyno CD3 (cyno (cynomolgus monkey), UniProt Q95LI5 22-198)
# T1 construct: whole, on cells; also called CD3 on Cynomolgus T-cells
# assay protocol: cell binding, cyno CD3 (activated cyno PBMC); cyno CD3 (second number of the cell)
reported metric: EC50 (nM)

>>> recorded_number("Fab9-HK129-Folate (Fab, V domains shown, pAF at HK129 (Kabat) conjugated to folate (oxime), also called Fab9 (E. coli, folate-conjugated)) VH: EVQLVESGGGLVQPGGSLRLSCAASGFTFNTYAMNWVRQAPGKGLEWVGRIRSKYNNYATYYADSVKDRFTISRDDSKNSLYLQMNSLKTEDTAVYYCVRHGNFGNSYVSWFAYWGQGTLVTVSS VL: QAVVTQEPSLTVSPGGTVTLTCRSSTGAVTTSNYANWFQQKPGQAPRGLIGGTNKRAPGVPARFSGSLLGGKAALTLSGAQPEDEAEYYCALWYSNLWVFGGGTKLTVLG")
93.1
